System: HCT-116, MDA-MB-231, HeLa, and MCF-7
Experiment: MTT cytotoxicity assay, ranges stated over several cell lines
Assay type: cell-based
Conditions: Homo sapiens, HCT-116, MDA-MB-231, HeLa, MCF-7; range; read-out: IC50 values, range over the cancer cell lines tested
Measure: IC50

Quick one: give measured IC50 for COc1cccc(C(=O)/C=C/c2ccc(OCc3ccccc3)c(OC)c2)c1 [Compound 4u]
55.6 to 82.8 µM

====

Test system: HCT-116, MDA-MB-231, HeLa, and MCF-7
Assay: MTT cytotoxicity assay, ranges stated over several cell lines
Assay type: cell-based
Settings: Homo sapiens, HCT-116, MDA-MB-231, HeLa, MCF-7; range; read-out: IC50 values, range over the cancer cell lines tested
Listed molecules paired with reported IC50

>  <Structure String>
COc1ccc(C(=O)/C=C/c2ccc(Cl)cc2)cc1

>  <IC50>
23.5 to 74.5 µM

$$$$
>  <Structure String>
CCOc1ccc(/C=C/C(=O)c2ccccc2)cc1

>  <IC50>
23.5 to 74.5 µM

$$$$
>  <Structure String>
COc1ccc(/C=C/C(=O)c2cccc(OC)c2)cc1

>  <IC50>
61.9 to 91.7 µM

$$$$
>  <Structure String>
COc1ccc(C(=O)/C=C/c2ccc(OCc3ccccc3)cc2)cc1

>  <IC50>
61.9 to 91.7 µM

$$$$
>  <Structure String>
O=C(/C=C/c1cccc(OCc2ccccc2)c1)c1ccccc1

>  <IC50>
23.5 to 74.5 µM

$$$$
>  <Structure String>
O=C(/C=C/c1ccccc1OCc1ccccc1)c1ccccc1

>  <IC50>
23.5 to 74.5 µM

$$$$
>  <Structure String>
COc1ccc(/C=C/C(=O)c2ccc(OC)cc2)cc1

>  <IC50>
61.9 to 91.7 µM

$$$$
>  <Structure String>
COc1ccc(C(=O)/C=C/c2ccccc2)cc1

>  <IC50>
23.5 to 74.5 µM

$$$$
>  <Structure String>
COc1cccc(C(=O)/C=C/c2cccc(OCc3ccccc3)c2)c1

>  <IC50>
23.5 to 74.5 µM

$$$$

Pending molecule:
Quick one: give measured IC50 for COc1ccc(C(=O)/C=C/c2cccc(OCc3ccccc3)c2)cc1
23.5 to 74.5 µM

meta.source: paper PMC11766267
